test system: Wnt5a (protein binding on small-molecule microarray); assay: small molecules binding Wnt5a protein – biophysical, small-molecule microarray, 635/667 nm fluorescence, primary screen (AID 1142); details: 635 nm fluorescence, higher = more signal;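 further: fluorescence read at 667 nm with signal to noise per printed feature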
Reported values of composite z-score for individual entries
Just the number, please, no unit attached.

Sample records with composite z-score:
compound	composite z-score
CN1C(=O)C2C=CC(C(O)C(c3ccccc3)c3ccccc3)N(Nc3ccccc3)C2C1=O (stereo not given)	0.35
O=C1O[C@@H](c2ccccc2)[C@@H](c2ccccc2)N2[C@@H](c3ccc(O)cc3)[C@]3(C(=O)Nc4ccccc43)[C@@H](C(=O)N3CCCCCCC3)[C@H]12	1.36
CCCNC(=O)[C@@]1(c2ccc([N+](=O)[O-])cc2)CC(=O)N(CC23CC4CC(CC(C4)C2)C3)[C@@H]1c1ccc(CO)cc1I	0.572

Lookup: Can you look up the measured composite z-score of [N-]=[N+]=NCc1ccccc1C[C@]1(C(=O)NCc2ccccc2)COC(c2ccc(OCCCO)cc2)=N1 for me?
Found: -0.0113

Lookup: Can you look up the measured composite z-score of C=CC[C@@]1(C(=O)NCc2ccccc2)N=C(c2ccc(OCCCO)cc2)O[C@@H]1c1ccccc1CN=[N+]=[N-] for me?
Found: 0.521

Lookup: Can you look up the measured composite z-score of COC(=O)c1c(CC[C@@H](CO)NC(=O)Nc2ncn[nH]2)oc(C(=O)Cc2ccccc2)c1C(=O)OC for me?
Found: -0.0403

Each recorded value in this set is attributed to PubChem BioAssay.
